// provenance: patent US20090149339A1

Biological target: T1, GST-CBP PDZ domain fusion protein (Cytohesin binding protein HE AA85-175; PDZ domain 1 of 1) (UniProt P08515 1-218 = GST)
T1 construct: also called Prot
T1 sequence (P08515 1-218, tags or fused parts left off): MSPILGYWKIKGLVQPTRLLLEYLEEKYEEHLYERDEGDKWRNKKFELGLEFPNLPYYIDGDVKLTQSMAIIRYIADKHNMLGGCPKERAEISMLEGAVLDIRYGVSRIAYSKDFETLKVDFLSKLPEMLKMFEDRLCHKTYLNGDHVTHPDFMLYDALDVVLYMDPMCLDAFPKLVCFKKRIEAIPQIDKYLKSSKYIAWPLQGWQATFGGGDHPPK
Assay: A/G assays
Ends that are not written are not given here. * marks the point of attachment. Biotin = O=C1N[C@H]2[C@H](CS[C@H]2CCCCC(=O)*)N1
Measured quantity: binding result

## Task // binding result lookup, key: Biotin-KKGTYLTDETHREVKFTSL [CD46 (form 1) C-terminal PL peptide AA10L, biotinylated]
## Result no binding

## Task Try the binder Biotin-KDSRPSFVGSSSGHTSTTL [CDW128B (IL8RB) C-terminal PL peptide AA29.2L, biotinylated]
## Result no binding

## Task Try the binder Biotin-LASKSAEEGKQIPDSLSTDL [DOCK2 C-terminal PL peptide AA40L, biotinylated]
## Result no binding

## Task Try the binder Biotin-GKGKSIGRAPEASLQDKEGA [CC CKR-2 C-terminal PL peptide AA42L, biotinylated]
## Result no binding
